Could you please report measured mMC3R Activity @ 10 μM (relative activity, percent) for the items listed next?
# study system: mMC3R (Mus musculus, UniProt P33033)
# Sequence (P33033 whole entry): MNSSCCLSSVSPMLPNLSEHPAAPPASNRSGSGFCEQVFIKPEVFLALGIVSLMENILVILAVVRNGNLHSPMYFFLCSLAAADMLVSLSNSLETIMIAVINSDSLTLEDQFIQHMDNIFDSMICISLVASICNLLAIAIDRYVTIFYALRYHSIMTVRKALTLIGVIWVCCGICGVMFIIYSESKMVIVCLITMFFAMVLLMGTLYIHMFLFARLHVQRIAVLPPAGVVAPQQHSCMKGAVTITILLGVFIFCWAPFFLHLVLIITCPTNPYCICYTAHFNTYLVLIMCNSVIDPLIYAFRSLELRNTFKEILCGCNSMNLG
# method: cAMP based functional bioassay (CRE/β-galactosidase reporter), agonist activity at mMC3R
# assay conditions: reported where receptor not activated to full activity
I only need the number, in %, no unit after it.

The measured mMC3R Activity @ 10 μM (relative activity, percent) associated with CC(C)C[C@@H]1CNC(=N)N1C[C@@H]1CCCN1C[C@@H](CC1CCCCC1)N1C[C@@H](C(C)C)N(CC2CCC(C(C)(C)C)CC2)C1=N (stereo partly drawn) [TPI 2509-11] reads 69

The measured mMC3R Activity @ 10 μM (relative activity, percent) associated with CC(C)[C@@H]1CNC(=N)N1C[C@@H]1CCCN1C[C@@H](Cc1ccccc1)N1C[C@@H](C(C)C)N(CC2CCC(C(C)(C)C)CC2)C1=N (stereo partly drawn) [TPI 2509-38] reads 68

The measured mMC3R Activity @ 10 μM (relative activity, percent) associated with CCC[C@@H]1CN([C@H](Cc2ccccc2)CN2CCC[C@H]2CN2C(=N)NC[C@H]2CC(C)C)C(=N)N1CC1CCC(C(C)(C)C)CC1 (stereo partly drawn) [TPI 2509-17] reads 83
